Source: paper PMC6267619

Target: PTP1B (human, recombinant) (Homo sapiens)
Construct: purchased BIOMOL International LP (Plymouth Meeting, PA)
Sequence (P18031 whole entry): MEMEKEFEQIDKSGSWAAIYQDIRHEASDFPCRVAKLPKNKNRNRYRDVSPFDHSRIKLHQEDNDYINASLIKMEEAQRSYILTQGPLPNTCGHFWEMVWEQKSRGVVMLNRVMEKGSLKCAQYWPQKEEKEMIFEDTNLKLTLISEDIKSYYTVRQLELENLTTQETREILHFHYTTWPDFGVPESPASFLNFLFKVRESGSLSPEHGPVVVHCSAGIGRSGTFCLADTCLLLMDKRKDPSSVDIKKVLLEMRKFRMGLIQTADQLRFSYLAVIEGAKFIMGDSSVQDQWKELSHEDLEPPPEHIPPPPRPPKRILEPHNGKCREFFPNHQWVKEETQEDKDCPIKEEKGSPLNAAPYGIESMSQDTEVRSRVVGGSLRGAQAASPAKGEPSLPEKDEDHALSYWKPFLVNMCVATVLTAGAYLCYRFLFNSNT
Assay: PTP1B inhibition assay with pNPP as substrate
Type: biochemical
Conditions: at 30 μg/mL
Binary call on inhibition at 30 µg/mL: 1 (yes) from 90% upward, 0 (no) beneath that.

{"compound": "C[C@H]1[C@H](C)CC[C@]2(C(=O)O)CC[C@]3(C)C(=CC[C@@H]4[C@@]5(C)CC[C@H](O)C(C)(C)[C@@H]5CC[C@]43C)[C@H]12 [Ursolic acid, reference compound]", "class": "1 (yes)"}
{"compound": "C=C1CC[C@@H](O)[C@]2(C)CC[C@H]3C(=C)C(=O)O[C@@H]3[C@@H]12", "class": "0 (no)"}
{"compound": "CC[C@H](CC[C@@H](C)[C@H]1CC[C@H]2[C@@H]3CC=C4C[C@@H](O)CC[C@]4(C)[C@H]3CC[C@]12C)C(C)C", "class": "0 (no)"}
{"compound": "C=C(C)[C@@H]1CC[C@]2(C(=O)O)CC[C@]3(C)[C@H](CC[C@@H]4[C@@]5(C)CC[C@H](O)C(C)(C)[C@@H]5CC[C@]43C)[C@@H]12", "class": "1 (yes)"}
{"compound": "C=C1CC[C@H]2C(=C)CC[C@@H]3[C@H](OC(=O)[C@H]3C)[C@@H]12", "class": "1 (yes)"}

Q: Is inhibition at 30 µg/mL at least 90%? Consider `C=C1C(=O)O[C@@H]2[C@H]3C(C)=CC[C@@H](O)[C@]3(C)CC[C@@H]12`
A: 0 (no)

Q: Answer whether inhibition at 30 µg/mL of C=C1C(=O)O[C@@H]2[C@@H]3[C@@](C)(CC[C@@H]12)[C@H](O)CC[C@@]3(C)O [Compound 8, 1β-hydroxy arbusculin A] is greater than or equal to 90%.
A: 0 (no)

Q: Reported inhibition at 30 µg/mL reaches at least 90% for C=C1CC[C@H]2C(=C)CC[C@H]3C(=C)C(=O)O[C@@H]3[C@@H]12 [Compound 4, dehydrocostuslactone] ?
A: 0 (no)

Q: Item C=C1C(=O)O[C@@H]2/C=C(\C)CC/C=C(\C)CC[C@@H]12 [Compound 5, costunolide] with inhibition at 30 µg/mL of 90% or above?
A: 0 (no)

Q: I'd appreciate it if you could say whether C/C1=C\[C@H]2OC(=O)[C@@H](C)[C@@H]2CC/C(C)=C/CC1 [Compound 6, 11β,13-dihydrocostunolide] has inhibition at 30 µg/mL at least equal to 90%.
A: 0 (no)
